- Test system: human erythroleukemia (K562) cell line
- experimentNotes: MTS antiproliferative (cytotoxicity) assay, K562
- Assay type: cell-based
- assayContext: MTS, 24 h; read-out: IC50, K562, 24 h
recordedEndpoint: pIC50
By convention, pIC50 is the negative base-10 log of a molar concentration.

Asked: Find pIC50 (human erythroleukemia (K562) cell line) for the entry N.N.[Cl][Pt][Cl] [Cisplatin, reference compound]
Given back: 4.34

###

- System: CT26 tumor
- experimentNotes: In vivo evaluation in CT26 tumor-bearing Balb/C mice
- assayContext: n = 7 per group, single i.p. 300 μL of 3 μM suspension, 10 days, control group one animal
recordedEndpoint: death of experimental animals by the end of the observation period

cpdSmiles: O=C1NC(=O)C2(N[C@@H](c3ccccc3)[C@@]3(c4ccccc4)[C@H](c4ccccc4)[C@@]23c2ccccc2)C(=O)N1
targetOrTestSystem: CT26 tumor
valueObserved: three

cpdSmiles: CCCC[C@@H]1NC2(C(=O)NC(=O)NC2=O)[C@]2(c3ccccc3)[C@@H](c3ccccc3)[C@]12c1ccccc1
targetOrTestSystem: CT26 tumor
valueObserved: two

cpdSmiles: CC(C)C[C@@H]1NC2(C(=O)NC(=O)NC2=O)[C@]2(c3ccccc3)[C@@H](c3ccccc3)[C@]12c1ccccc1
targetOrTestSystem: CT26 tumor
valueObserved: one

###

- Tested on: African green monkey kidney epithelial (Vero) cell line
- experimentNotes: MTS antiproliferative (cytotoxicity) assay, Vero (reference)
- Type: cell-based
- assayContext: MTS, 72 h; read-out: IC50, Vero, 72 h
- Procedure: The cytotoxicity of synthesized 3-azaspiro[bicyclo[3.1.0]hexane-2,5′-pyrimidines] 4 against human erythroleukemia (K562), cervical carcinoma (HeLa), and T lymphocyte (Jurkat), as well as mouse colon carcinoma (CT26) and African green monkey kidney epithelial (Vero) cell lines as reference, was evaluated in vitro by the standard MTS assay for 24 and 72 h. […]
recordedEndpoint: pIC50
By convention, pIC50 is the negative base-10 log of a molar concentration.

Asked: For the molecule shown here, N.N.[Cl][Pt][Cl] [Cisplatin, reference compound] , give the reported pIC50.
Given back: 5.40

###

The compounds listed here are annotated with their IC50.
- Test system: mouse colon carcinoma (CT26) cell line
- experimentNotes: MTS antiproliferative (cytotoxicity) assay, CT26
- Type: cell-based
- assayContext: Mus musculus, CT26, 24 h, read-out: IC50, CT26, 24 h

cpdSmiles: CCCC[C@@H]1NC2(C(=O)NC(=O)NC2=O)[C@]2(c3ccccc3)[C@@H](c3ccccc3)[C@]12c1ccccc1
targetOrTestSystem: mouse colon carcinoma (CT26) cell line
recordedEndpoint: IC50
valueObserved: 10 µM
//
cpdSmiles: CCCCCC[C@@H]1NC2(C(=O)NC(=O)NC2=O)[C@]2(c3ccccc3)[C@@H](c3ccccc3)[C@]12c1ccccc1
targetOrTestSystem: mouse colon carcinoma (CT26) cell line
recordedEndpoint: IC50
valueObserved: 22 µM

Asked: For the compound shown here, O=C1NC(=O)C2(NC[C@@]3(c4ccccc4)[C@H](c4ccccc4)[C@@]23c2ccccc2)C(=O)N1 , give the reported IC50.
Given back: 64 µM

###

- Test system: human erythroleukemia (K562) cell line
- experimentNotes: MTS antiproliferative (cytotoxicity) assay, K562
- Assay type: cell-based
- assayContext: Homo sapiens, K562, 24 h, read-out: IC50, K562, 24 h
The molecules listed here are annotated with their IC50.
Your answer is read as µM, so omit the unit and give the number.

cpdSmiles: CC[C@@H]1NC2(C(=O)NC(=O)NC2=O)[C@]2(c3ccccc3)[C@@H](c3ccccc3)[C@]12c1ccccc1
unitSpec: µM
valueObserved: 12
--
cpdSmiles: C[C@@H]1NC2(C(=O)NC(=O)NC2=O)[C@]2(c3ccccc3)[C@@H](c3ccccc3)[C@]12c1ccccc1
unitSpec: µM
valueObserved: 25
--
cpdSmiles: O=C1NC(=O)C2(N[C@@H](c3ccccc3)[C@@]3(c4ccccc4)[C@H](c4ccccc4)[C@@]23c2ccccc2)C(=O)N1
unitSpec: µM
valueObserved: 26

Read the next record carefully.
Asked: For the molecule shown here, CC(C)C[C@@H]1NC2(C(=O)NC(=O)NC2=O)[C@]2(c3ccccc3)[C@@H](c3ccccc3)[C@]12c1ccccc1 , give the reported IC50.
Given back: 17

The reported measurements were obtained from paper PMC9506420.
